Species: Homo sapiens
Assay Comment: Selectivity index, ratio of Ki for TSPO A147T mutant (unknown origin) to Ki for wild type TSPO (unknown origin)
So basically: Ratio Ki at 5 or higher? That is TRUE. Lower than 5? That is FALSE.

>>> discrete_label("CN(Cc1ccccc1)C(=O)CN1c2ccccc2NC(=O)c2ccccc21")
"FALSE"

Is Ratio Ki for CCN(Cc1ccccc1)C(=O)Cc1c(-c2ccc(OC)cc2)nn2c(C)cc(C)nc12 at or above 5?
TRUE

Is Ratio Ki for CCN(Cc1ccccc1)C(=O)CN1c2ccccc2NC(=O)c2ccccc21 at or above 5?
TRUE

Is Ratio Ki for COc1ccc(-c2nn3c(C)cc(C)nc3c2CC(=O)N(C)C)cc1 at or above 5?
FALSE

Is Ratio Ki for CCN(CC)C(=O)CN1Cc2cnn(C)c2Nc2ccccc21 at or above 5?
FALSE

---

Target Or System: Translocator protein (Homo sapiens, UniProt P30536)
Sequence (P30536 whole entry): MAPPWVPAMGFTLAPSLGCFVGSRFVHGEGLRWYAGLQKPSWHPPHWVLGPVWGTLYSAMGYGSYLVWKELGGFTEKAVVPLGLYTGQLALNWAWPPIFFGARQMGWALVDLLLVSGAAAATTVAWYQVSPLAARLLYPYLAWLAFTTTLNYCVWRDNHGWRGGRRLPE
Note to self: Ki under 0.02 µM means 1 (yes), ties and anything higher get 0 (no).

Illustrative cases are given below, each with its answer.
>>> discrete_label("CCN(Cc1ccccc1)C(=O)CN1c2ccccc2NC(=O)c2ccccc21")
"1 (yes)"
>>> discrete_label("COc1ccc(-c2nn3c(C)cc(C)nc3c2CC(=O)N(C)Cc2ccccc2)cc1")
"1 (yes)"

Hi there! Is Ki for CN(Cc1ccccc1)C(=O)CN1Cc2cnn(C)c2Nc2ccccc21 below 0.02 µM, do you know?
0 (no)

Hi there! Is Ki for CCN(Cc1ccccc1)C(=O)CN1Cc2cnn(C)c2Nc2ccccc21 below 0.02 µM, do you know?
0 (no)

---

Here, each record is paired with measured Ratio Ki data.
Organism: Homo sapiens
Assay Comment: Selectivity index, ratio of Ki for TSPO A147T mutant (unknown origin) to Ki for wild type TSPO (unknown origin)
Just the number.

Some compounds with known Ratio Ki results, for comparison:
>>> reported("CCN(Cc1ccccc1)C(=O)CN1Cc2cnn(C)c2Nc2ccccc21")
5.5
>>> reported("CN(Cc1ccccc1)C(=O)CN1Cc2cnn(C)c2Nc2ccccc21")
4.8
>>> reported("COc1ccc(-c2nn3c(C)cc(C)nc3c2CC(=O)N(C)Cc2ccccc2)cc1")
2.9

In plain terms, CN(Cc1ccccc1)C(=O)Cn1c2ccccc2c2ccccc21 has a documented Ratio Ki of 2.5

In plain terms, CCN(CC)C(=O)Cn1c2ccccc2c2ccccc21 has a documented Ratio Ki of 5.9

In plain terms, CCN(CC)C(=O)CN1c2ccccc2NC(=O)c2ccccc21 has a documented Ratio Ki of 11.8

---

A short record of pKi observed with UniProtKB P30536 follows.
pKi here: minus log base 10 of the concentration, concentration in moles per litre.

Some molecules with known pKi results, for comparison:
>>> reported("CCN(Cc1ccccc1)C(=O)Cc1c(-c2ccc(OC)cc2)nn2c(C)cc(C)nc12")
8.21
>>> reported("COc1ccc(-c2nn3c(C)cc(C)nc3c2CC(=O)N(C)C)cc1")
6.47
>>> reported("CCN(CC)C(=O)CN1c2ccccc2NC(=O)c2ccccc21")
6.70

Could you now consider this next molecule?
Tested on UniProtKB P30536, the item CCN(CC)C(=O)CN1Cc2cnn(C)c2Nc2ccccc21 showed pKi equal to 6.31
